assayed_target: CLDN3/4 (endogenous on LS513 or MCF7 cells)
experimental_protocol: FACS titration of labelled mAb on MCF7 cells (endogenous CLDN3/4+)
reported_property: pEC50
The quantity pEC50 is defined as the negative base-10 logarithm of the molar concentration.

binder="AB8 (antibody, V domains shown, full-length IgG (ExpiCHO)) VH: QVQLQQSGAELARPGASVKMSCKASGYTFTTYTMHWLKQRPGQGLEWIGYINPRSGYSNYNQKFKDKATLTADKSSNTAYMQLNTLTSEDSKVYYCSRGELGGFAYWGQGTLVTVSA VL: DVVMTQTPLSLPVSLGDQASISCRSSQSLVHSDGNTYLYWYLQKPGQSPKLLIYKVSNRFSGVPDRFSGSGSGTDFTLKISRVEAEDLGVYFCSQSTHVPYTFGGGTKLEIK" reported_property=pEC50 measured=5.97
binder="AB9 (antibody, V domains shown) VH: EVQLQQSGPELVKPGASVKMSCKASGYRFTDYNMHWVKQSHGKSLEWIGYINPNNGGTNYNQNFKGKATLTVNKSSSTAYMELRSLTSEDSAAYYCARDYLYFFDCWGQGTTLTVSS VL: DIQMTQSPASQSASLGESVTITCLASQTIGTWLAWYQQKPGKSPQLLIYAAASLADGVPSRFSGSGSGTRFSFKISSLQAEDFVSYYCQQLYSIPRTFGGGTKLEIK" reported_property=pEC50 measured=5.30
binder="AB18 (antibody, V domains shown) VH: QVQLKQSGPELEKPGASVKISCKASGYSFTGYNMNWVKQSNGKSLEWIGNIDPYYGGSTYNQKFTGKATLTVDKSSSTAYMQLKSLTSEDSAVYYCARERSGYVFSAMDYWGQGTSVTVSS VL: NIMMTQSPSSLAVSAGEKVTMSCKSSQSVLFSSNQKNYLAWYQQKPGQSPRLLIYWASTRESGVPDRFTGSGSGTDFTLTISNVQAEDLAVYYCHQYLSSRTFGAGTKLELK" reported_property=pEC50 measured=5.30

According to the records, this binder AB13 (antibody, V domains shown) VH: QVQLQQSGAELVRPGTSVKVSCKASGYAFSNYLIEWVKQRPGQGLEWIGVINPGSGGTNYNEKFKGKATMTADKSSSTAYMHLSNLTSEDSVVYFCARSYFGRSYPYTMDYWGQGTSVTVSS VL: EIVLTQSPTTMAASPGEKITITCSASSSISSNYLHWYQQKPGFSPKLLIYRTSNLASGVPARFSGSGSGTSYSLTIGTMEAEDVATYYCQQGSSIPLTFGAGTKLELK displays pEC50 of 5.30

According to the records, this binder AB11 (antibody, V domains shown, full-length IgG (ExpiCHO)) VH: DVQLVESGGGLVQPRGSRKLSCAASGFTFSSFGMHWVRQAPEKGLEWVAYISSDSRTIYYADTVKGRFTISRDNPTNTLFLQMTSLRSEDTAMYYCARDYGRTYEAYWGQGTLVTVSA VL: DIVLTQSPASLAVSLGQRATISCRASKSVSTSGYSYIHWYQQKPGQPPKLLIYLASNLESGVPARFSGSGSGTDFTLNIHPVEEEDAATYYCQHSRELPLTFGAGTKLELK displays pEC50 of 6.37
